System: AS120
Assay: qHTS profiling for inhibitors of Plasmodium falciparum proliferation (AID 504749); note: nearly all actives have a fitted effect of over 60% in size; note: potency is the fitted concentration of half-maximal effect
Settings: P. falciparum in erythrocytes, SYBR Green DNA, 72 h; series mostly up to 28.7 µM
Records with an inconclusive call do not appear. Calls of active or inactive are those of the source. Calls come from the whole dose curve; as a rule, active = well fitted inhibition curve with a large enough effect; inconclusive = small, poorly fitted or top-dose-only effect; inactive = flat fitted curve, though single readings scatter.
quantity.name: Potency

Solved entries (count: 10):
[
  {
    "compound": "CCOC(=O)C1=C[C@]2(CC)CCCN3CCc4c(n1c1ccccc41)[C@@H]32",
    "Potency": "8.91 µM (active)"
  },
  {
    "compound": "CCc1ccc(CCOc2ccc(CC3SC(=O)NC3=O)cc2)nc1 (stereo not drawn)",
    "Potency": "inactive"
  },
  {
    "compound": "NC[C@H](O)c1ccc(O)c(O)c1",
    "Potency": "inactive"
  },
  {
    "compound": "CCOC(=O)N1CCC(=C2c3ccc(Cl)cc3CCc3cccnc32)CC1",
    "Potency": "1.78 µM (active)"
  },
  {
    "compound": "Nc1nc2ccc(OC(F)(F)F)cc2s1",
    "Potency": "inactive"
  },
  {
    "compound": "O=NN(CCCl)C(=O)NCCCl",
    "Potency": "inactive"
  },
  {
    "compound": "CCCc1nc2c(C)cc(-c3nc4ccccc4n3C)cc2n1Cc1ccc(-c2ccccc2C(=O)O)cc1",
    "Potency": "1.41 µM (active)"
  },
  {
    "compound": "Cc1[nH]c(=O)c(C#N)cc1-c1ccncc1",
    "Potency": "inactive"
  },
  {
    "compound": "NC(=O)c1cnccn1",
    "Potency": "inactive"
  },
  {
    "compound": "NS(=O)(=O)c1cc2c(cc1Cl)NC=NS2(=O)=O",
    "Potency": "inactive"
  }
]

Input line: Item: CC(C)NCC(O)COc1ccc(COCCOC(C)C)cc1 (stereo not drawn) Test system: AS120 Read-out: Potency Value: ?
Output line: inactive

Input line: Item: NCCCC(N)(C(=O)O)C(F)F (stereo not drawn) Test system: AS120 Read-out: Potency Value: ?
Output line: inactive

Input line: Item: C1COC(NC(C2CC2)C2CC2)=N1 Test system: AS120 Read-out: Potency Value: ?
Output line: 12.6 µM (active)

Input line: Item: Nc1nc2c(ncn2COCCO)c(=O)[nH]1 Test system: AS120 Read-out: Potency Value: ?
Output line: inactive

Input line: Item: CNC[C@H](O)c1cccc(O)c1 Test system: AS120 Read-out: Potency Value: ?
Output line: inactive

Input line: Item: N[C@@H]1CONC1=O Test system: AS120 Read-out: Potency Value: ?
Output line: inactive

Input line: Item: CCCc1nn(C)c2c(=O)[nH]c(-c3cc(S(=O)(=O)N4CCN(C)CC4)ccc3OCC)nc12 Test system: AS120 Read-out: Potency Value: ?
Output line: inactive

Input line: Item: Cc1[nH]c(=O)c(C#N)cc1-c1ccc2nccn2c1 Test system: AS120 Read-out: Potency Value: ?
Output line: inactive

Input line: Item: Cc1ccc(N(CC2=NCCN2)c2cccc(O)c2)cc1 Test system: AS120 Read-out: Potency Value: ?
Output line: inactive

Input line: Item: O=c1[nH]cnc2[nH]ncc12 Test system: AS120 Read-out: Potency Value: ?
Output line: inactive

Input line: Item: CN1CCN(CCCN2c3ccccc3Sc3ccc(C(F)(F)F)cc32)CC1 Test system: AS120 Read-out: Potency Value: ?
Output line: 3.16 µM (active)

Input line: Item: NCCc1ccc(O)c(O)c1 Test system: AS120 Read-out: Potency Value: ?
Output line: inactive

Input line: Item: N#Cc1ccc(C(c2ccc(C#N)cc2)n2cncn2)cc1 Test system: AS120 Read-out: Potency Value: ?
Output line: inactive

Data origin, for the record: PubChem BioAssay (NCATS)
